Give measured Bliss interaction score for each item. Keep answers brief.
System: S. aureus DSM 20231
PROTOCOL_SUMMARY: Bliss interaction score (quartile over a dose matrix) (fitness difference); higher = more antagonism (negative = synergy);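 note: first quartile when negative (synergy) and third quartile when positive (antagonism)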
One number for each entry.

For every item below, please supply its Bliss interaction score.
1. CC[C@H]1OC(=O)[C@H](C)[C@@H](O[C@H]2C[C@@](C)(OC)[C@@H](O)[C@H](C)O2)[C@H](C)[C@@H](O[C@@H]2O[C@H](C)C[C@H](N(C)C)[C@H]2O)[C@](C)(O)C[C@@H](C)CN(C)[C@H](C)[C@@H](O)[C@]1(C)O [Azithromycin] + C/C(=C\C(=O)OCCCCCCCCC(=O)O)C[C@@H]1OC[C@H](C[C@@H]2O[C@H]2[C@@H](C)[C@H](C)O)[C@@H](O)[C@H]1O [Pseudomonic acid]
2. CC[C@H]1OC(=O)[C@H](C)[C@@H](O[C@H]2C[C@@](C)(OC)[C@@H](O)[C@H](C)O2)[C@H](C)[C@@H](O[C@@H]2O[C@H](C)C[C@H](N(C)C)[C@H]2O)[C@](C)(O)C[C@@H](C)CN(C)[C@H](C)[C@@H](O)[C@]1(C)O [Azithromycin] + CN1CCN(C2=Nc3ccccc3Oc3ccc(Cl)cc32)CC1 [Loxapine]

Result block:
-0.0221
-0.147

----------
Tested on: S. aureus Newman
PROTOCOL_SUMMARY: Bliss interaction score (quartile over a dose matrix) (fitness difference); higher = more antagonism (negative = synergy)
PROPERTY_NAME: Bliss interaction score
Numbers only.

Consider the reported Bliss interaction score for these compounds:
CC1=C(C(=O)O)N2C(=O)[C@@H](NC(=O)[C@H](N)c3ccccc3)[C@H]2SC1 [Cephalexin] + CN1C2=CC=CC=C2N=C3C1=CC=CC3=O [Pyocyanin] = 0.0862
CN(N=O)C(=O)N[C@@H](C=O)[C@@H](O)[C@H](O)[C@H](O)CO [Streptozotocin] + CC1=C\[C@@H](O)CC(=O)Cc2nc(co2)C(=O)N2CCC=C2C(=O)O[C@H](C(C)C)[C@H](C)/C=C/C(=O)NC\C=C\1 [Virginiamycin M1] = 0.0262
CC[C@H]1OC(=O)[C@H](C)[C@@H](O[C@H]2C[C@@](C)(OC)[C@@H](O)[C@H](C)O2)[C@H](C)[C@@H](O[C@@H]2O[C@H](C)C[C@H](N(C)C)[C@H]2O)[C@](C)(O)C[C@@H](C)CN(C)[C@H](C)[C@@H](O)[C@]1(C)O [Azithromycin] + O=C1CN(/N=C/c2ccc([N+](=O)[O-])o2)C(=O)N1 [Nitrofurantoin] = -0.0835

Value sought for every listed compound: Bliss interaction score.
1. CC1=C(C(=O)O)N2C(=O)[C@@H](NC(=O)[C@H](N)c3ccccc3)[C@H]2SC1 [Cephalexin] + CC(=O)NC[C@H]1CN(c2ccc(N3CCOCC3)c(F)c2)C(=O)O1 [Linezolid]
2. Cc1onc(-c2ccccc2)c1C(=O)N[C@@H]1C(=O)N2[C@@H]1SC(C)(C)[C@@H]2C(=O)O [Oxacillin] + CCN(CC)CCOC(=O)c1ccc(N)cc1 [Procaine]

Result block:
0.106
-0.0416

----------
Tested on: S. aureus DSM 20231
PROTOCOL_SUMMARY: Bliss interaction score (quartile over a dose matrix) (fitness difference); higher = more antagonism (negative = synergy)
PROPERTY_NAME: Bliss interaction score

Would you please look over these solved cases?
CC1=C(C(=O)O)N2C(=O)[C@@H](NC(=O)[C@H](N)c3ccccc3)[C@H]2SC1 [Cephalexin] + C[C@H]1COc2c(N3CCN(C)CC3)c(F)cc3c(=O)c(C(=O)O)cn1c23 [Levofloxacin] = -0.037
CC[C@H]1OC(=O)[C@H](C)[C@@H](O[C@H]2C[C@@](C)(OC)[C@@H](O)[C@H](C)O2)[C@H](C)[C@@H](O[C@@H]2O[C@H](C)C[C@H](N(C)C)[C@H]2O)[C@](C)(O)C[C@@H](C)CN(C)[C@H](C)[C@@H](O)[C@]1(C)O [Azithromycin] + Cc1c(Cl)cccc1Nc1ccccc1C(=O)O [Tolfenamic] = -0.292
Cn1c2cccc(=O)c-2nc2ccccc21 [Pyocyanin] + CN(N=O)C(=O)N[C@@H](C=O)[C@@H](O)[C@H](O)[C@H](O)CO [Streptozotocin] = 0.0692

Now for a further compound.
Query block: // Bliss interaction score lookup, key: O=C(O)[C@H]1/C(=C/CO)O[C@@H]2CC(=O)N21 [Clavulanic] + CC(=O)O[C@H]1C[C@@]2(C)[C@@H](C[C@@H](O)[C@H]3[C@@]4(C)CC[C@@H](O)[C@@H](C)[C@@H]4CC[C@@]32C)/C1=C(\CCC=C(C)C)C(=O)O [Fusidic acid]
Result block: -0.265
